Values from ChEMBL document CHEMBL4020727

system-name: Protein deacetylase HDAC6 (Homo sapiens)
Sequence (Q9UBN7 whole entry): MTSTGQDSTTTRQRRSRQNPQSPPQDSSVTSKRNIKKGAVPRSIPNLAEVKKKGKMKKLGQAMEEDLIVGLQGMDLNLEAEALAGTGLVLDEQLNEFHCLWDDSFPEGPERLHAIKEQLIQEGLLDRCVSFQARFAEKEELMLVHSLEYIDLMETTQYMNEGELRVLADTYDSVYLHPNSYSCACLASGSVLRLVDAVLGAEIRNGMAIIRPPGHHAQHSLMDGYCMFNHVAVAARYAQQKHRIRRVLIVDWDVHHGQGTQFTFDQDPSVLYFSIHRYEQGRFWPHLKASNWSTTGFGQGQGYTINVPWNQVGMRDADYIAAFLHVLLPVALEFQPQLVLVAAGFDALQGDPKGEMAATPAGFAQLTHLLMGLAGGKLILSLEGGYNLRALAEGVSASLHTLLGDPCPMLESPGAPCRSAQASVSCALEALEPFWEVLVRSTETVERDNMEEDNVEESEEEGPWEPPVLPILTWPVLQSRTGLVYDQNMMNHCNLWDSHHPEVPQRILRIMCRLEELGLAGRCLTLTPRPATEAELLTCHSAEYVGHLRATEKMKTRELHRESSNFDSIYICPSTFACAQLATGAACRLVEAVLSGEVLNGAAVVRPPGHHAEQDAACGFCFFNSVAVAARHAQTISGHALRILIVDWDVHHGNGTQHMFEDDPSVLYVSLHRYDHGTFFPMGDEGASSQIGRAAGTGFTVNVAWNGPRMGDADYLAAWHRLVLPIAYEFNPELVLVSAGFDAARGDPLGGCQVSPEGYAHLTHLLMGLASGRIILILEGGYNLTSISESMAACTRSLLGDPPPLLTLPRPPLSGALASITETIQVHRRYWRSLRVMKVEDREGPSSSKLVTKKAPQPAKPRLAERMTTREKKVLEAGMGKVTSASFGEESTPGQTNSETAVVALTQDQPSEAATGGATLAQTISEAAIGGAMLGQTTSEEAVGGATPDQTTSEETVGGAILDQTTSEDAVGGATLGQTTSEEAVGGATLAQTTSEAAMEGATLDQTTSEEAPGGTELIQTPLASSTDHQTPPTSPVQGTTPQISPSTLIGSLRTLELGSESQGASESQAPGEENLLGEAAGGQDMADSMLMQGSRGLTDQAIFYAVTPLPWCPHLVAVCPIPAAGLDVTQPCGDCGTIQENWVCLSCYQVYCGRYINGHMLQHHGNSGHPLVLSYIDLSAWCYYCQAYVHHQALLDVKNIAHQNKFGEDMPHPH
assay-endpoint: IC50 (nM)
Express it in nM; write the number only.

CC(C)[C@@H]1NC(=O)[C@]2(C)CSC(=N2)c2csc(n2)CNC(=O)C[C@@H](/C=C/CCSCCS)OC1=O | 2800

Now for the compound whose IC50 we want.
Name the reported IC50 value associated with the compound `CC(C)[C@@H]1NC(=O)[C@]2(C)CSC(=N2)c2csc(n2)CNC(=O)C[C@@H](/C=C/CCC(=O)NO)OC1=O`
600

* * *

system-name: Histone deacetylase 1 (Homo sapiens)
Sequence (Q13547 whole entry): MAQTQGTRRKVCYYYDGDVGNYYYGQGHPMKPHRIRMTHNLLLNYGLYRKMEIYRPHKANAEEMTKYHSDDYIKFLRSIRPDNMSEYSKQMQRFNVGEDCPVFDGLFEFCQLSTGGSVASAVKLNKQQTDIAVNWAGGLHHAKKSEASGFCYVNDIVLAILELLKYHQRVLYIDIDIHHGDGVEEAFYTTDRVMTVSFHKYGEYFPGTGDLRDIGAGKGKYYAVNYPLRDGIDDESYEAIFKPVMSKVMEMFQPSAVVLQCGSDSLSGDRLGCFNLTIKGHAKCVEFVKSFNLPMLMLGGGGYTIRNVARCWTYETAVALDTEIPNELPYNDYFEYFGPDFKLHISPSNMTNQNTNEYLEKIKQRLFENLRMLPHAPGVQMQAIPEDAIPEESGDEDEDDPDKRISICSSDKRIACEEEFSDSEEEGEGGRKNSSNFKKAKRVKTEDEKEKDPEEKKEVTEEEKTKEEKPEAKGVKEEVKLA
assay-info: Inhibition of recombinant full length C-terminal His/FLAG-tagged human HDAC1 expressed in baculovirus infected Sf9 insect cells using BPS HDAC substrate 3 at 10 uM after 30 mins by fluorescence assay relative to control
assay-endpoint: inhibition

// worked examples, inhibition included
CC(C)[C@@H]1NC(=O)[C@]2(C)CSC(=N2)c2csc(n2)CNC(=O)C[C@@H](/C=C/CCN)OC1=O | < 15%
CCC/C=C/[C@@H]1CC(=O)NCc2nc(cs2)C2=N[C@@](C)(CS2)C(=O)N[C@@H](C(C)C)C(=O)O1 | < 15%
CC(C)[C@@H]1NC(=O)[C@]2(C)CSC(=N2)c2csc(n2)CNC(=O)C[C@@H](/C=C/CCC(=O)O)OC1=O | < 15%
CC(=O)CC(=O)NC/C=C/[C@@H]1CC(=O)NCc2nc(cs2)C2=N[C@@](C)(CS2)C(=O)N[C@@H](C(C)C)C(=O)O1 | < 15%

Find inhibition (Histone deacetylase 1 (Homo sapiens)) for the entry `CCC(=O)CC/C=C/[C@@H]1CC(=O)NCc2nc(cs2)C2=N[C@@](C)(CS2)C(=O)N[C@@H](C(C)C)C(=O)O1`
30%

* * *

system-name: Histone deacetylase 3/Nuclear receptor corepressor 2 (HDAC3/NCoR2) (Homo sapiens, UniProt O15379)
Sequence (O15379 whole entry): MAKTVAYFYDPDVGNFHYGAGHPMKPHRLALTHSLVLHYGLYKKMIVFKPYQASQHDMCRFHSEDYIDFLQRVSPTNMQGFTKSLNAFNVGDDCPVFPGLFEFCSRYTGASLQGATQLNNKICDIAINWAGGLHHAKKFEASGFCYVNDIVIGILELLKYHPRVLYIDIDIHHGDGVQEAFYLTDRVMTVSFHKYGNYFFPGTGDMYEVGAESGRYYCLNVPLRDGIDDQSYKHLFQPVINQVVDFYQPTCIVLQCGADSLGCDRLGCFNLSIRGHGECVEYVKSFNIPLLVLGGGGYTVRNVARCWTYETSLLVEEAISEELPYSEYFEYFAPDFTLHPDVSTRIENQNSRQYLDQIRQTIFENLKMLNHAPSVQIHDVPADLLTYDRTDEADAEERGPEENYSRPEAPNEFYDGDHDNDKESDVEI
Sequence (Q9Y618 whole entry, further chain): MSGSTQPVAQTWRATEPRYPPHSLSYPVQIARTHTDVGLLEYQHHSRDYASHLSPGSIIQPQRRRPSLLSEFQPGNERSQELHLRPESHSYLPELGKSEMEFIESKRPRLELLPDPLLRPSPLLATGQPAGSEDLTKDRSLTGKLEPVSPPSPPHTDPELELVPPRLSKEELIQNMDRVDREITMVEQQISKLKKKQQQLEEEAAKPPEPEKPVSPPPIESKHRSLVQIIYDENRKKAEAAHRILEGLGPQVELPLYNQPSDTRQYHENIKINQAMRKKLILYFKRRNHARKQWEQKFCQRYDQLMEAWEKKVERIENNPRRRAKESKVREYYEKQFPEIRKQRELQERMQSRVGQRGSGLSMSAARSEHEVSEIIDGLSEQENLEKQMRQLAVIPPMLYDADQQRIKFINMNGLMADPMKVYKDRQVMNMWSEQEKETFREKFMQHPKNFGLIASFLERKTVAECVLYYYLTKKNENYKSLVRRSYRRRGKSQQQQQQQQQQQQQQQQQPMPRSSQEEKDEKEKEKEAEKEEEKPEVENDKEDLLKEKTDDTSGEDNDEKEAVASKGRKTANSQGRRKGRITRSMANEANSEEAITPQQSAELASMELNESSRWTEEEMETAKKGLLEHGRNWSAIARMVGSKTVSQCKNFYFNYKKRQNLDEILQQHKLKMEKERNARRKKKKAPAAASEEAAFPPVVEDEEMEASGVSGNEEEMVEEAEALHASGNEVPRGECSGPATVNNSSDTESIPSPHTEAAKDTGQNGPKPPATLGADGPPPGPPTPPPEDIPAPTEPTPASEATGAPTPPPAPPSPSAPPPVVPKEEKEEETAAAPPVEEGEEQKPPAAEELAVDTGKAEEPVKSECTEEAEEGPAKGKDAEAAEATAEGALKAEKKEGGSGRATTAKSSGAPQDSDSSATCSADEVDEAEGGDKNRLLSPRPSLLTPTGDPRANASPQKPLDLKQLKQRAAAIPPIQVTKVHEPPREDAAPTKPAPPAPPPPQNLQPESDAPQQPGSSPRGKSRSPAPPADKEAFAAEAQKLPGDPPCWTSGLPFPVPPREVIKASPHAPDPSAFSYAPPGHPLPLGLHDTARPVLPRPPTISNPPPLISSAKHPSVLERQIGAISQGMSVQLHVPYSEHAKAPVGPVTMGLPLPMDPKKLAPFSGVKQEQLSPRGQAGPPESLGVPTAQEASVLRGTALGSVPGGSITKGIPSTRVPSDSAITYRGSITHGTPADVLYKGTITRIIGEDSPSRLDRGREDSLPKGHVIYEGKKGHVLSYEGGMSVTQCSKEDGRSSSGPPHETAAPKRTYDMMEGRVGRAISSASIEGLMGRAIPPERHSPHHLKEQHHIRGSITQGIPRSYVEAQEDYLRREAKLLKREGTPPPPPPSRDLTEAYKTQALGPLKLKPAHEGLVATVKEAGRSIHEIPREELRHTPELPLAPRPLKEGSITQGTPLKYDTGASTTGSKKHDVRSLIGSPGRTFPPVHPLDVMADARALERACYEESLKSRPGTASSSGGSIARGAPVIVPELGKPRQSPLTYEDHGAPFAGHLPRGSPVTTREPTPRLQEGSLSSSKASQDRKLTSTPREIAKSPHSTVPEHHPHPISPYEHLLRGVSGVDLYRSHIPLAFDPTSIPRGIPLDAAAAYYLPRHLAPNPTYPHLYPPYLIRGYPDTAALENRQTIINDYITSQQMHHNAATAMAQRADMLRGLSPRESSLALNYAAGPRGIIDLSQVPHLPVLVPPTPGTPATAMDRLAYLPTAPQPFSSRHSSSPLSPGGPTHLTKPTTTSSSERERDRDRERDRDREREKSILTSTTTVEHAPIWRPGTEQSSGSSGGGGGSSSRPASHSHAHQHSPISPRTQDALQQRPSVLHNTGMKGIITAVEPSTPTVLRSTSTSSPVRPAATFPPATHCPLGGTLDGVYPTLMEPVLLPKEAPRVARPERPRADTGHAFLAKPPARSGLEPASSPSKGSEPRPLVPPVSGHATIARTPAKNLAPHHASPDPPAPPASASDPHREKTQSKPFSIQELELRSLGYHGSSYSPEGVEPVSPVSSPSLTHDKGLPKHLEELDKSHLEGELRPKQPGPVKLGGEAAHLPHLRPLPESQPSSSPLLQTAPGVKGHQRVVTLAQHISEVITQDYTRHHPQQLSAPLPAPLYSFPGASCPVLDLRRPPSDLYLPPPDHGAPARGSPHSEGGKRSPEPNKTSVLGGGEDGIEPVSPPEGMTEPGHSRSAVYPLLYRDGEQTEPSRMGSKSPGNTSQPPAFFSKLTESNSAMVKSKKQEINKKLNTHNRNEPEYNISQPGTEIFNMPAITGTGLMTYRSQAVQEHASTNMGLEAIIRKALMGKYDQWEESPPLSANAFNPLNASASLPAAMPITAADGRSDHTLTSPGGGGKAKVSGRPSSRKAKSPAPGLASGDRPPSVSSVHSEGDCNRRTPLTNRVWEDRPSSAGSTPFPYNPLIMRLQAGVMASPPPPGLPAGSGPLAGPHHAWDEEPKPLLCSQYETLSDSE
Collected pIC50 values appear next to each entry.
pIC50 (log units): -log10 of the concentration in mol/L.

# example entries with known answers
CC(C)[C@@H]1NC(=O)[C@]2(C)CSC(=N2)c2csc(n2)CNC(=O)C[C@@H](/C=C/CCSCCS)OC1=O | 7.37
CCC(=O)CC/C=C/[C@@H]1CC(=O)NCc2nc(cs2)C2=N[C@@](C)(CS2)C(=O)N[C@@H](C(C)C)C(=O)O1 | 5.10

Okay, next one:
What value of pIC50 has been reported for the following compound? `CC(C)[C@@H]1NC(=O)[C@]2(C)CSC(=N2)c2csc(n2)CNC(=O)C[C@@H](/C=C/CCC(=O)NO)OC1=O`
7.54

* * *

Catalogue of inhibition values
system-name: Histone deacetylase 5 (Homo sapiens) (UniProt Q9UQL6)
Sequence (Q9UQL6 whole entry): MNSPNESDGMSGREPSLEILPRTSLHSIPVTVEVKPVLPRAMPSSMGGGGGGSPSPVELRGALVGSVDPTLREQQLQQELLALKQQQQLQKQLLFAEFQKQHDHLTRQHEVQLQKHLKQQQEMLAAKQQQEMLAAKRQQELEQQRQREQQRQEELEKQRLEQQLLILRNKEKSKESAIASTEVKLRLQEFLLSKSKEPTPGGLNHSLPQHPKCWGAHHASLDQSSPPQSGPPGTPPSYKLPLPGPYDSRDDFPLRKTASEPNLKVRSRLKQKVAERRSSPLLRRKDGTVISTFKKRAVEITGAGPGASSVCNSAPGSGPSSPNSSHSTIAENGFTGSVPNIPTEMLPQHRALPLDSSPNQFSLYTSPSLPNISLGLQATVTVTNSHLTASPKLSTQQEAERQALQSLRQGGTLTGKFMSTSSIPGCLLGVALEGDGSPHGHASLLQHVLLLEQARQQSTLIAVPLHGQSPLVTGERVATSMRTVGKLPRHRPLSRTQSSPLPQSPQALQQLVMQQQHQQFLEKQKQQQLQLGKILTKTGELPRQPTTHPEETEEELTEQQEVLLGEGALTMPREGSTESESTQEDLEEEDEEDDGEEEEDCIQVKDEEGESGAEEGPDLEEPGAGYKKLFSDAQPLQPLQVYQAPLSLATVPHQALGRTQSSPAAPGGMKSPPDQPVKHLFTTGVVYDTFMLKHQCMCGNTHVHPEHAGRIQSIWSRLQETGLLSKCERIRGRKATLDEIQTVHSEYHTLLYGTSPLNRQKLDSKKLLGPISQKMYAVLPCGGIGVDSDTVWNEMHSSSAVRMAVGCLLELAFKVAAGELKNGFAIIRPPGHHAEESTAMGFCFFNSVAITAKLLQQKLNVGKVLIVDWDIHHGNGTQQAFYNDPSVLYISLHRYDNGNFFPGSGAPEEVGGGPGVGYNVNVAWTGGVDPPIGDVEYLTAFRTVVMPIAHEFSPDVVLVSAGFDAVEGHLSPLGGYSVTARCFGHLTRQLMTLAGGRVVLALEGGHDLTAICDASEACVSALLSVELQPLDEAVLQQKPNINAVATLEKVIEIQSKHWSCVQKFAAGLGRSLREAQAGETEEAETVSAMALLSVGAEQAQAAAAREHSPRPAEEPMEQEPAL
assay-info: Inhibition of full length N-terminal GST-tagged human HDAC5 expressed in baculovirus infected Sf9 insect cells using BPS HDAC class 2a substrate at 10 uM after 30 mins by fluorescence assay relative to control

Use these answered entries as a reference point.
CCC/C=C/[C@@H]1CC(=O)NCc2nc(cs2)C2=N[C@@](C)(CS2)C(=O)N[C@@H](C(C)C)C(=O)O1 | < 15%
CC(C)[C@@H]1NC(=O)[C@]2(C)CSC(=N2)c2csc(n2)CNC(=O)C[C@@H](/C=C/CCSCCS)OC1=O | 22%
CC(=O)CC(=O)NC/C=C/[C@@H]1CC(=O)NCc2nc(cs2)C2=N[C@@](C)(CS2)C(=O)N[C@@H](C(C)C)C(=O)O1 | < 15%
CC(C)[C@@H]1NC(=O)[C@]2(C)CSC(=N2)c2csc(n2)CNC(=O)C[C@@H](/C=C/CCC(=O)O)OC1=O | < 15%

Entry `CC(C)[C@@H]1NC(=O)[C@]2(C)CSC(=N2)c2csc(n2)CNC(=O)C[C@@H](/C=C/CCN)OC1=O` : reported inhibition = ?
< 15%

Please answer likewise for `CC(C)[C@@H]1NC(=O)[C@]2(C)CSC(=N2)c2csc(n2)CNC(=O)C[C@@H](/C=C/CCC(=O)NO)OC1=O`
21%

Another compound: `CCC(=O)CC/C=C/[C@@H]1CC(=O)NCc2nc(cs2)C2=N[C@@](C)(CS2)C(=O)N[C@@H](C(C)C)C(=O)O1`
< 15%

* * *

system-name: UniProt Q9UBN7
assay-info: Inhibition of full length N-terminal GST-tagged human HDAC6 expressed in baculovirus infected Sf9 insect cells using HDAC substrate 3 after at 10 uM 30 mins by fluorescence assay relative to control
assay-endpoint: inhibition (%)

CC(=O)CC(=O)NC/C=C/[C@@H]1CC(=O)NCc2nc(cs2)C2=N[C@@](C)(CS2)C(=O)N[C@@H](C(C)C)C(=O)O1 | 22
CC(C)[C@@H]1NC(=O)[C@]2(C)CSC(=N2)c2csc(n2)CNC(=O)C[C@@H](/C=C/CCC(=O)O)OC1=O | 17

* * *

system-name: Histone deacetylase 2 (Homo sapiens)
Sequence (Q92769 whole entry): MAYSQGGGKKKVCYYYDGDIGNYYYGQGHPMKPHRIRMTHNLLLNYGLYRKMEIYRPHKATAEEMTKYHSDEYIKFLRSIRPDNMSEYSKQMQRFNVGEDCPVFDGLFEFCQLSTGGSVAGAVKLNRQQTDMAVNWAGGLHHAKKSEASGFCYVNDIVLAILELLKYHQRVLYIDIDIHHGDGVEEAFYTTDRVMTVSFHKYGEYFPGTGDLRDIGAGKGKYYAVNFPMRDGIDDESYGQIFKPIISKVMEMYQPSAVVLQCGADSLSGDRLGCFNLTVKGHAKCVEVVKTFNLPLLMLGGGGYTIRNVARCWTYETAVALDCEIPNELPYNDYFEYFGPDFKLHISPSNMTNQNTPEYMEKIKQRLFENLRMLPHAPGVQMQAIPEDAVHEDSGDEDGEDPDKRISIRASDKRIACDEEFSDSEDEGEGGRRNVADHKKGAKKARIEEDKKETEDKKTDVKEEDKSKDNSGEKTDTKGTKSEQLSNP
assay-info: Inhibition of full length C-terminal FLAG-tagged human HDAC2 expressed in baculovirus infected Sf9 insect cells using BPS HDAC substrate 3 at 10 uM after 30 mins by fluorescence assay relative to control
assay-endpoint: inhibition

Before answering, review these 4 worked examples.
CC(C)[C@@H]1NC(=O)[C@]2(C)CSC(=N2)c2csc(n2)CNC(=O)C[C@@H](/C=C/CCC(=O)O)OC1=O | < 15%
CCC/C=C/[C@@H]1CC(=O)NCc2nc(cs2)C2=N[C@@](C)(CS2)C(=O)N[C@@H](C(C)C)C(=O)O1 | < 15%
CC(C)[C@@H]1NC(=O)[C@]2(C)CSC(=N2)c2csc(n2)CNC(=O)C[C@@H](/C=C/CCN)OC1=O | < 15%
CC(=O)CC(=O)NC/C=C/[C@@H]1CC(=O)NCc2nc(cs2)C2=N[C@@](C)(CS2)C(=O)N[C@@H](C(C)C)C(=O)O1 | < 15%

Note: attention shifts to another entry.
Query: inhibition; subject: `CCC(=O)CC/C=C/[C@@H]1CC(=O)NCc2nc(cs2)C2=N[C@@](C)(CS2)C(=O)N[C@@H](C(C)C)C(=O)O1`
24%

* * *

system-name: Polyamine deacetylase HDAC10 (Homo sapiens)
Sequence (whole entry): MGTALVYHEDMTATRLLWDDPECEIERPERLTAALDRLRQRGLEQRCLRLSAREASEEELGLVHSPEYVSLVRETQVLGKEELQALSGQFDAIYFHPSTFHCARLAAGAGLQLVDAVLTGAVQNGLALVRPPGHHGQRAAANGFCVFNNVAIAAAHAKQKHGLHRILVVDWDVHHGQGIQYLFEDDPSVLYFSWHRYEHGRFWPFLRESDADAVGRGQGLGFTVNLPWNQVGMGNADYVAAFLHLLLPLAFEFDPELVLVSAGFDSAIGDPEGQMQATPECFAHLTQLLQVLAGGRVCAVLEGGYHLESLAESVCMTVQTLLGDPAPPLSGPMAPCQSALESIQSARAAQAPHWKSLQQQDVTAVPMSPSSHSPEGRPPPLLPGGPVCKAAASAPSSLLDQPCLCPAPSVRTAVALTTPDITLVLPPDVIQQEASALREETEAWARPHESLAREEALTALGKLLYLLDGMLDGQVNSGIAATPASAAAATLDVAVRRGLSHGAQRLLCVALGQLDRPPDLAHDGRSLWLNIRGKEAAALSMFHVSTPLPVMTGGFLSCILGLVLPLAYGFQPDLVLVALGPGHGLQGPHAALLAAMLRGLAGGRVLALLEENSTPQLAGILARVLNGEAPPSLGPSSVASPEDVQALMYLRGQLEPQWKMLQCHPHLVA
assay-info: Inhibition of N-terminal GST-tagged/C-terminal His-tagged human HDAC10 (1 to 481 residues) expressed in baculovirus infected Sf9 insect cells using BPS HDAC substrate 3 at 10 uM after 30 mins by fluorescence assay relative to control
assay-endpoint: inhibition (%)

P: CC(C)[C@@H]1NC(=O)[C@]2(C)CSC(=N2)c2csc(n2)CNC(=O)C[C@@H](/C=C/CCC(=O)O)OC1=O
Q: CCC(=O)CC/C=C/[C@@H]1CC(=O)NCc2nc(cs2)C2=N[C@@](C)(CS2)C(=O)N[C@@H](C(C)C)C(=O)O1
Look at P and Q . Which one has the lower recorded inhibition number? Mark your answer with the label of the selected entry.
P
